Reference source for all entries: the supplement of paper PMC9233669

Test system: biotinyl-Ile-oxazolone
assay.comment: self-aminoacylation, catalytic enhancement (BIO) (fold over background); higher = more active; k-Seq, kA / k0A0; sequences stand for … in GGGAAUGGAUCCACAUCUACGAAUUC…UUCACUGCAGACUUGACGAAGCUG
Variants at the floor of the assay were thinned out.
Returns True if the recorded self-aminoacylation is greater than or equal to 5, and False otherwise.

[
  {
    "sequence.record": "AUUCACCUAGGUCAUCGGAGG [Fam2.2 aminoacylation ribozyme variant]",
    "qualitative.label": "False"
  },
  {
    "sequence.record": "ACUCACAUAGGUCAUCGGGUG [Fam2.2 aminoacylation ribozyme variant]",
    "qualitative.label": "True"
  },
  {
    "sequence.record": "AUUCACCUAGGUCAGCGGGCG [Fam2.2 aminoacylation ribozyme variant]",
    "qualitative.label": "True"
  },
  {
    "sequence.record": "AUUCUCCUCGGUCAUCGGGUG [Fam2.2 aminoacylation ribozyme variant]",
    "qualitative.label": "True"
  },
  {
    "sequence.record": "AUUAUCCUGGUCAUCGAGUGG [Fam2.1 aminoacylation ribozyme variant]",
    "qualitative.label": "False"
  },
  {
    "sequence.record": "AUUCACCUAGGUAAUCGCGUG [Fam2.2 aminoacylation ribozyme variant]",
    "qualitative.label": "False"
  },
  {
    "sequence.record": "AAGUUUGCAAAUAGUAGCAAG [Fam3.1 aminoacylation ribozyme variant]",
    "qualitative.label": "False"
  },
  {
    "sequence.record": "CCAGACUUCAAGCAAUCAGUC [Fam1B.1 aminoacylation ribozyme variant]",
    "qualitative.label": "False"
  },
  {
    "sequence.record": "AUUCCCCUAGGUCAGCGGGUG [Fam2.2 aminoacylation ribozyme variant]",
    "qualitative.label": "True"
  },
  {
    "sequence.record": "CUACUUAAAACAAUAGGUCUG [Fam1A.1 aminoacylation ribozyme variant]",
    "qualitative.label": "False"
  },
  {
    "sequence.record": "CUACUUCAAACAAUAGGUCGG [Fam1A.1 aminoacylation ribozyme variant]",
    "qualitative.label": "False"
  },
  {
    "sequence.record": "AUUACCCUGGUAACCGAGUGA [Fam2.1 aminoacylation ribozyme variant]",
    "qualitative.label": "True"
  },
  {
    "sequence.record": "CUUCACCUAGGUAAUCGGGUG [Fam2.2 aminoacylation ribozyme variant]",
    "qualitative.label": "False"
  },
  {
    "sequence.record": "AAGCGUGCUAAUAGUCGCAAG [Fam3.1 aminoacylation ribozyme variant]",
    "qualitative.label": "False"
  },
  {
    "sequence.record": "AAGUUUGCUAAUAGUCGCGCG [Fam3.1 aminoacylation ribozyme variant]",
    "qualitative.label": "False"
  },
  {
    "sequence.record": "UAGUUUGCUAAAAGUCGCAAG [Fam3.1 aminoacylation ribozyme variant]",
    "qualitative.label": "False"
  },
  {
    "sequence.record": "AUUCUCCUUGGUCAUCGGGUG [Fam2.2 aminoacylation ribozyme variant]",
    "qualitative.label": "True"
  },
  {
    "sequence.record": "AACUUAGCUAAUAGUCGCAAG [Fam3.1 aminoacylation ribozyme variant]",
    "qualitative.label": "False"
  }
]
